Each recorded value in this set is attributed to patent US20230233569A1.

# System name: KRAS G12C (Homo sapiens, UniProt P01116+P62937, G12C)
# Sequence (P01116 1-169 isoform P01116-2 G12C limits assumed): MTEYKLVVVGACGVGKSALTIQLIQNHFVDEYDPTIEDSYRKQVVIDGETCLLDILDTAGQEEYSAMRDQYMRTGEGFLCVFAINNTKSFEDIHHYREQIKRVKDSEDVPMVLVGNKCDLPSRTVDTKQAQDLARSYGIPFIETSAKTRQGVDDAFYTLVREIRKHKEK
# Sequence (P62937 whole entry): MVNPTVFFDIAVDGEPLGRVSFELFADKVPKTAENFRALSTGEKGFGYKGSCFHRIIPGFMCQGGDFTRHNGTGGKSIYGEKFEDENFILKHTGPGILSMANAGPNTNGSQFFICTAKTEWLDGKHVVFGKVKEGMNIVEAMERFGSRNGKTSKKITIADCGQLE
# Assay explanation: Ras-Raf disruption / FRET / MOA assay (BRAF RBD)
# Format: biochemical
# Experimental context: Ras-Raf disruption, with Cyclophilin A; read-out: KRAS G12C FRET data IC50
I'd be grateful if you could share measured IC50 for these entries.

Completed entries (count: 5):
CCn1c(-c2cccnc2[C@H](C)OC)c2c3cc(ccc31)-c1cccc(c1)C[C@H](NC(=O)[C@H](C(C)C)N(C)C(=O)CCN=C=NCc1ccccc1OC)C(=O)N1CCC[C@H](N1)C(=O)OCC(C)(C)C2 ... 0.01 to 0.1 µM
CCn1c(-c2cccnc2[C@H](C)OC)c2c3cc(ccc31)-c1csc(n1)C[C@H](NC(=O)[C@H](C(C)C)N(C)C(=O)N1CCN(C(=O)[C@H]3CN3)[C@@H](C)C1)C(=O)N1CCC[C@H](N1)C(=O)OCC(C)(C)C2 ... 0.01 to 0.1 µM
CCn1c(-c2cccnc2[C@H](C)OC)c2c3cc(ccc31)-c1csc(n1)C[C@H](NC(=O)[C@H](C(C)C)N(C)C(=O)N1CCCN(C(=O)[C@@H]3CN3)CC1)C(=O)N1CCC[C@H](N1)C(=O)OCC(C)(C)C2 (atropisomer, axis not shown) ... 0.01 to 0.1 µM
CCn1c(-c2cccnc2[C@H](C)OC)c2c3cc(ccc31)-c1csc(n1)C[C@H](NC(=O)[C@H](C(C)C)N(C)C(=O)N1CCCN(C(=O)[C@H]3CN3)CC1)C(=O)N1CCC[C@H](N1)C(=O)OCC(C)(C)C2 (atropisomer, axis not shown) ... 0.01 to 0.1 µM
CCn1c(-c2cccnc2[C@H](C)OC)c2c3cc(ccc31)-c1cc(O)cc(c1)C[C@H](NC(=O)[C@H](C(C)C)N(C)C(=O)[C@]1(F)CCN(C(=O)[C@@H]3CN3)C1)C(=O)N1CCC[C@H](N1)C(=O)OCC(C)(C)C2 (atropisomer, axis not shown) ... < 0.01 µM

// input: 3 compounds below; output: IC50 for each
1. CCn1c(-c2cccnc2[C@H](C)OC)c2c3cc(ccc31)-c1cc(O)cc(c1)C[C@H](NC(=O)[C@H](C(C)C)N(C)C(=O)[C@H]1CCN(C(=O)C3(C)CO3)C1)C(=O)N1CCC[C@H](N1)C(=O)OCC(C)(C)C2 (some centres unmarked)
2. CCn1c(-c2cccnc2[C@H](C)OC)c2c3cc(ccc31)-c1cc(O)cc(c1)C[C@H](NC(=O)[C@H](C(C)C)N(C)C(=O)[C@H]1CCN(C(=O)[C@H]3CN3)[C@H]1C)C(=O)N1CCC[C@H](N1)C(=O)OCC(C)(C)C2 (atropisomer, axis not shown)
3. CCn1c(-c2cccnc2[C@H](C)OC)c2c3cc(ccc31)-c1cc(O)cc(c1)C[C@H](NC(=O)[C@H](C(C)C)N(C)C(=O)c1ccc([C@H]3CN3)cc1)C(=O)N1CCC[C@H](N1)C(=O)OCC(C)(C)C2

["0.01 to 0.1 µM", "0.01 to 0.1 µM", "0.1 to 1 µM"]
